target: biotinylated α-elapitoxin-Dpp2d from Dendroaspis polylepis (Dendroaspis polylepis (black mamba), UniProt C0HJD7); assay: BLI; […]; association at pH 7.4, dissociation at pH 7.4; 1:1 global fit, […]; conditions: both partners purified
Sequence (C0HJD7 whole entry): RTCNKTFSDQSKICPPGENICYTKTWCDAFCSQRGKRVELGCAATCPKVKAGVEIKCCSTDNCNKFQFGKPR
Binary classification by kon, with 100000 M⁻¹ s⁻¹ as an inclusive lower bound for TRUE; all other cases are FALSE.

| BINDER | ANSWER_LABEL |
| --- | --- |
| G09 Fab (Fab, V domains shown) VH: QVQLVQSGAEVKKPGSSVKVSCKASGGTFSSYAISWVRQAPGQGLEWMGGIIPIFGTANYAQKFQGRVTITADESTSTAYMELRSLRSDDTAVYYCARDNLGYCSGGSCYSDYYYYYMDVWGQGTLVTVSS VL: SYELTQPPSVSVAPGRTATITCEGDNIGQQIVHWYRQKSDQAPVVVVYDGSRRPSGIPERFSGSNSGNTATLTISRVEAGDEADYYCQVWDITSDHVVFGGGTQLTVL | TRUE |
| A12 Fab (Fab, V domains shown) VH: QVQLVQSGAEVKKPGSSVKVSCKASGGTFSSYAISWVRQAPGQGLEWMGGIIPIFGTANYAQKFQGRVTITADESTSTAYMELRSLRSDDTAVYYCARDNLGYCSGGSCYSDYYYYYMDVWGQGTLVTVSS VL: NFMLTQPHSVSESPGKTVTFSCTRSSGRIVSDYVHWYQQRPGSAPTTVIYEDNQRPSGVPDRFSGSIDSSSNSASLTISGLKTEDEADYYCQSYDSSNAYVVFGGGTKVTVL | TRUE |
| A01 Fab (Fab, V domains shown) VH: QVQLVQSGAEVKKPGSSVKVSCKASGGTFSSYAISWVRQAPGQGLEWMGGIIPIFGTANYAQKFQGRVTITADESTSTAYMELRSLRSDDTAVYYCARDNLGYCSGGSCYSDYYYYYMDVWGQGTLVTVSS VL: SYELTQPPSVSVAPGRTATITCEGDNIGQQIVHWYQQKPGQAPVAVISSDSDRPSGIPERFSGSNSGNTATLTISRVEAGDEADYYCQVWDSGSDHVVFGGGTKVTVL | FALSE |
| D11 Fab (Fab, V domains shown) VH: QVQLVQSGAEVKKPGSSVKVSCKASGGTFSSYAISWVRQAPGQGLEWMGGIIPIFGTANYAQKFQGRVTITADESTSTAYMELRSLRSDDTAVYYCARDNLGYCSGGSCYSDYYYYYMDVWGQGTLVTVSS VL: NFMLTQPRSVSESPGKTVTISCTRSSGSIGSDYVHWYQQRPGSSPTTVIYEDNQRPSGVPDRFSGSIDSSSNSASLTISGLKTEDEADYYCQSYDRSNHEVVFGGGTKLTVL | TRUE |
| B11 Fab (Fab, V domains shown) VH: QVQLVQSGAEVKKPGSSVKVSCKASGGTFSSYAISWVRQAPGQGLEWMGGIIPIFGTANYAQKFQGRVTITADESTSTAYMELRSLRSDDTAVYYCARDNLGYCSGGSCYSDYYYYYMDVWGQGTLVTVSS VL: SYELTQPPSVSVAPGQTATITCGGHNIGSNIVHWYHQKPGQAPELVISHNTNRPSGIPERFSGSNSGSTATLTISRVEAVDEADYYCQVWDSSSEHVVFGGGTKVTVL | FALSE |
